- Tested on: PC-3 prostate
- Run description: NCI tumour cell line growth inhibition, 48 h
Measurement name: TGI

Param item = C=C(Cl)C(Cl)(CCl)CCC(Br)C(C)(C)Br (centres undefined) ; retrieve measured TGI. > 10 µM

Now consider `c1ccc2c(c1)cc1n2CCc2c-1[nH]c1ccccc21` . > 10 µM

====

- Test system: OVCAR-5 ovarian
- Run description: NCI tumour cell line growth inhibition, 48 h
Recorded measurements of TGI, one per entry
Express it in µM; write the number only.

A selection of reference data follows.
Compound	TGI [µM]
COc1ccc(CCN2CCC(CN(C)Cc3cnn(-c4ccccc4)c3)CC2)cc1	58.3
COc1cc2oc3c(c(=O)c2c(O)c1/C=C/C(C)C)C(C=C(C)C)Oc1cc(O)ccc1-3 (centres undefined)	31.1
Cl.Fc1c[c-]c(-c2ccccn2)c(F)c1.[Pt].c1ccc([PH+](C[PH+](c2ccccc2)c2ccccc2)c2ccccc2)cc1	1.18

Shifting focus to the compound that follows.
Param item = CC1OC2OC3C(OCC(O)C3O)OC(=O)[C@]34CCC(C)(C)CC3C3=CCC5[C@@]6(C)C[C@H](O)[C@H](OC7OC(CO)C(O)C(O)C7OC7OCC(OC(=O)CC(C)(O)CC(=O)OC1C(O)C2O)C(O)C7O)[C@@](C)(CO)C6CC[C@@]5(C)[C@]3(C)CC4 (some centres undefined) ; retrieve measured TGI. 7
